measurement-protocol: Pharmacokinetics after intravenous and oral administration in rats
Type: in vivo
study-conditions: rat, plasma, iv dosing, 1 mg/kg
result-type: AUC(0-t) (ng·h/mL)

# lookup: AUC(0-t) of Cc1c(C(=O)Nc2ccc(Oc3ccnc(NC(=O)N4CCOCC4)c3)cn2)c(=O)n(-c2ccccc2)n1C [Ex. 18]
4290

Look up AUC(0-t) for this molecule: Cc1c(C(=O)Nc2ccc(Oc3ccnc(N)c3)cc2)c(=O)n(-c2ccccc2)n1C [Ex. 1]
706

Consider the molecule shown here: Cc1c(C(=O)Nc2ccc(Oc3ccnc(N)c3Cl)c(F)c2)c(=O)n(-c2ccccc2)n1C [Ex. 3] What is its recorded AUC(0-t)?
922

a: Cc1c(C(=O)Nc2ccc(Oc3ccnc(N)c3Cl)cc2)c(=O)n(-c2ccccc2)n1C [Ex. 2]
b: CC(=O)Nc1cc(Oc2cc(F)c(NC(=O)c3c(C)n(C)n(-c4ccccc4)c3=O)cc2F)ccn1 [Ex. 9]
c: Cc1c(C(=O)Nc2cc(F)c(Oc3ccnc(NC(=O)N4CCOCC4)c3)cc2F)c(=O)n(-c2ccccc2)n1C [Ex. 10]
Hi! Can you put these in order of AUC(0-t), lowest number first? Provide the labels, sequenced as the question asks.
a, c, b
(a: 685 ng·h/mL, c: 9640 ng·h/mL, b: 23300 ng·h/mL)

Cited source for all entries: patent US8969388B1
